# Target Or System: T1, human GIP receptor (human, UniProt P48546 22-466)
# T1 sequence (looked up): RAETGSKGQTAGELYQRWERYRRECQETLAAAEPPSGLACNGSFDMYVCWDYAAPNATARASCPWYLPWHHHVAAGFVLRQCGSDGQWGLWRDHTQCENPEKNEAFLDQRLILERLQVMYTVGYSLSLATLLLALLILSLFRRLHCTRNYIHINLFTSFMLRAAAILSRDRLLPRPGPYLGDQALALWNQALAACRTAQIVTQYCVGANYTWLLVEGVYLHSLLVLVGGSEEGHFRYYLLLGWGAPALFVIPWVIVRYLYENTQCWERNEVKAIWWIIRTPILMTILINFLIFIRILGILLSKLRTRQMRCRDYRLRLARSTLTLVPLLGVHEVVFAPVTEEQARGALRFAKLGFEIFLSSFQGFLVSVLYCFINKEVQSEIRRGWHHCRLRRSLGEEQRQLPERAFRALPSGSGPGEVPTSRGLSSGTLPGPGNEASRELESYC
# Assay Details: cell-based or functional assay
Readout: cAMP EC50 (1.0% HSA) (nM)
Kindly answer with a numeric value in nM, unit omitted.

Value of cAMP EC50 (1.0% HSA) reported for the binder YXEGTXTSDXSIXLDXIAQXKFIXXLIKGGPSSGAPPPS (Y-Aib-EGT-αMeF(2F)-TSD-4Pal-SI-αMeL-LD-Orn-IAQ-Aib-K((2-[2-(2-Amino-ethoxy)-ethoxy]-acetyl)3-(γ-Glu)-CO-(CH2)12-CO2H)FI-(D-Glu)-αMeY-LIK((2-[2-(2-Amino-ethoxy)-ethoxy]-acetyl)3-(γ-Glu)-CO-(CH2)12-CO2H)GGPSSGAPPPS-NH2) [Example 227] is 1.59

Value of cAMP EC50 (1.0% HSA) reported for the binder YXEGTXTSDXSIXLDXIAQXEFIKXLIKGGPSSGAPPPS (Y-Aib-EGT-αMeF(2F)-TSD-hTyr-SI-αMeL-LD-Orn-IAQ-Aib-EFIK((2-[2-(2-Amino-ethoxy)-ethoxy]-acetyl)2-(γ-Glu)-(10-(4-carboxyphenoxy)decanoyl))-αMeY-LIK((2-[2-(2-Amino-ethoxy)-ethoxy]-acetyl)2-(γ-Glu)-(10-(4-carboxyphenoxy)decanoyl))GGPSSGAPPPS-NH2) [Example 310] is 2.4

Value of cAMP EC50 (1.0% HSA) reported for the binder YXEGTXTSDYXIXLDXIAQXEFIKXLIKGGPSSGAPPPS (Y-Aib-EGT-αMeF(2F)-TSDY-αMeS-I-αMeL-LD-Orn-IAQ-Aib-EFIK((2-[2-(2-Amino-ethoxy)-ethoxy]-acetyl)2-(γ-Glu)-(10-(4-carboxyphenoxy)decanoyl))-αMeY-LIK((2-[2-(2-Amino-ethoxy)-ethoxy]-acetyl)2-(γ-Glu)-(10-(4-carboxyphenoxy)decanoyl))GGPSSGAPPPS-NH2) [Example 307] is 1.66

Value of cAMP EC50 (1.0% HSA) reported for the binder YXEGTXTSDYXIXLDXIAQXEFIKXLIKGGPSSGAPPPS (Y-Aib-EGT-αMeF(2F)-TSDY-αMeS-I-αMeL-LD-Orn-IAQ-Aib-EFIK((2-[2-(2-Amino-ethoxy)-ethoxy]-acetyl)2-(γ-Glu)-CO-(CH2)12-CO2H)-αMeY-LIK((2-[2-(2-Amino-ethoxy)-ethoxy]-acetyl)2-(γ-Glu)-CO-(CH2)12-CO2H)GGPSSGAPPPS-NH2) [Example 303] is 2

Value of cAMP EC50 (1.0% HSA) reported for the binder YXEGTXTSDXXIXLDXIAQXEFIKXLIKGGPSSGAPPPS (Y-Aib-EGT-αMeF(2F)-TSD-4Pal-Aib-I-αMeL-LD-Orn-IAQ-Aib-EFIK((2-[2-(2-Amino-ethoxy)-ethoxy]-acetyl)2-(γ-Glu)-(10-(4-carboxyphenoxy)decanoyl))-αMeY-LIK((2-[2-(2-Amino-ethoxy)-ethoxy]-acetyl)2-(γ-Glu)-(10-(4-carboxyphenoxy)decanoyl))GGPSSGAPPPS-NH2) [Example 246] is 1.63

Value of cAMP EC50 (1.0% HSA) reported for the binder YXEGTXTSDXXIXLDXKAQXKFIXXLIEGGPSSGAPPPS (Y-Aib-EGT-αMeF(2F)-TSD-4Pal-Aib-I-αMeL-LD-Orn-K((2-[2-(2-Amino-ethoxy)-ethoxy]-acetyl)2-(γ-Glu)-CO-(CH2)10-CH3)AQ-Aib-K((2-[2-(2-Amino-ethoxy)-ethoxy]-acetyl)2-(γ-Glu)-CO-(CH2)10-CH3)FI-(D-Glu)-αMeY-LIEGGPSSGAPPPS-NH2) [Example 322] is 0.617
